testTarget: Dv-ACE-1 (Dictyocaulus viviparus, UniProt Q0H0R6)
testProtocol: Ellman assay, transfected COS-7 extract, logistic fit
Assay type: biochemical
testReadout: IC50 (µM)
Hi! Could you send only the number? It should be in µM, unit omitted.

Data point: CCN(CC)C(C)CN1c2ccccc2Sc2ccccc21 (stereo not shown) ; IC50 = 137

Data point: CNC(=O)Oc1ccc2c(c1)[C@]1(C)CCN(C)[C@@H]1N2C ; IC50 = 0.126

Data point: C=CC[N+](C)(C)c1ccc(CCC(=O)CCc2ccc([N+](C)(C)CC=C)cc2)cc1 ; IC50 = 0.303
